- ASSAYED TARGET: Autotaxin (Homo sapiens, UniProt Q13822)
pIC50: −log10 of the molar value.
MEASURED PROPERTY: pIC50

Take a look at these entries with their results.
[in] Sample C[C@H](CCC(=O)N1CCc2nc(NCCc3ccccc3Cl)ncc2C1)[C@H]1CC[C@H]2[C@@H]3[C@@H](O)C[C@@H]4C[C@H](O)CC[C@]4(C)[C@H]3CC[C@]12C — what was its pIC50?
[out] 6.99

[in] Sample C[C@H](CCC(=O)O)[C@H]1CC[C@H]2[C@@H]3[C@@H](O)C[C@@H]4C[C@H](O)CC[C@]4(C)[C@H]3CC[C@]12C [URSODIOL] — what was its pIC50?
[out] 5.03

[in] Sample Cc1ccc(CCNc2ncc3c(n2)CCN(C(=O)CC[C@@H](C)[C@H]2CC[C@H]4[C@@H]5[C@@H](O)C[C@@H]6C[C@H](O)CC[C@]6(C)[C@H]5CC[C@]24C)C3)cc1 — what was its pIC50?
[out] 6.77

[in] Sample C[C@H](CCC(=O)N1CCc2nc(NCCc3ccc(Cl)cc3)ncc2C1)[C@H]1CC[C@H]2[C@@H]3[C@@H](O)C[C@@H]4C[C@H](O)CC[C@]4(C)[C@H]3CC[C@]12C — what was its pIC50?
[out] 8.12

[1] C[C@H](CCC(=O)N1CCc2nc(NCc3cc(Cl)cc(Cl)c3)ncc2C1)[C@H]1CC[C@H]2[C@@H]3[C@@H](O)C[C@@H]4C[C@H](O)CC[C@]4(C)[C@H]3CC[C@]12C
[2] C[C@H](CCC(=O)N1CCc2nc(NCCc3ccc(F)cc3)ncc2C1)[C@H]1CC[C@H]2[C@@H]3[C@@H](O)C[C@@H]4C[C@H](O)CC[C@]4(C)[C@H]3CC[C@]12C
[3] C[C@H](CCC(=O)N1CCc2nc(NC3Cc4ccc(Br)cc4C3)ncc2C1)[C@H]1CC[C@H]2[C@@H]3[C@@H](O)C[C@@H]4C[C@H](O)CC[C@]4(C)[C@H]3CC[C@]12C (stereo partly specified)
[in] Hi! Can you put these in order of pIC50, lowest number first? Submit the labels in the order that the ranking request calls for.
[out] 2, 1, 3

Values were extracted from ChEMBL document CHEMBL5537145.
